Entry source: patent US20130129746A1

Quick reference: pKd of the listed items.
biological target: T1, Cynomolgus monkey Serum Albumin (Cynomolgus monkey, UniProt A2V9Z4 25-608); test: BIAcore SPR
T1 construct: mature; purified protein on CM5 chips for BIAcore; also called CSA; cyno SA
T1 sequence (A2V9Z4 25-608): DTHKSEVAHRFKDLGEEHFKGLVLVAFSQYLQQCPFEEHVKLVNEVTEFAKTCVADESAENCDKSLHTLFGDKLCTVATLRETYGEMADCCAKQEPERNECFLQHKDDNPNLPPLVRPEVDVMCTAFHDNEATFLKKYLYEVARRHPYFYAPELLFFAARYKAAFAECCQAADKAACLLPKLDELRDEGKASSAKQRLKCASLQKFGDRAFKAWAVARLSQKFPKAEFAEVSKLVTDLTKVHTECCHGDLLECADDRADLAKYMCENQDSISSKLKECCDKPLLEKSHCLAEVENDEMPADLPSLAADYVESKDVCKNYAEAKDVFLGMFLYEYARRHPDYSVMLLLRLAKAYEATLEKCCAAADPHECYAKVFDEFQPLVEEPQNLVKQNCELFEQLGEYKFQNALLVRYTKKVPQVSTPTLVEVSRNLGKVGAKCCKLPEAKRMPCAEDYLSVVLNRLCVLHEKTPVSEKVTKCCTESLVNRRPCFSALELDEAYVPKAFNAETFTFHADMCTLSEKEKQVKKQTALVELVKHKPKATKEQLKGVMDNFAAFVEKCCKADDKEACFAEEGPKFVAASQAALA
Schema: pKd number; meaning minus log10 of the concentration expressed in molar units.

Worked examples, 3 binders total:
binder | pKd
DOM7h-11-80 (other, Vk dAb) VL: DIQMTQSPSSLSASVGDRVTIFCRASRPIGTMLSWYQQKPGKAPKLLILAFSRLQSGVPSRFSGSGSGTDFTLTISSLQPEDFATYYCAQAGTHPTTFGQGTKVEIKW | 8.26
DOM7h-11-65 (other, Vk dAb) VL: DIQMTQSPSSLSASVGDRVTITCRASRPIGTMLSWYQQKPGKAPKLLILAFSRLQSGVPSRFSGSGSGTDFTLTISSLQPEDVATYYCAQAGTHPTTFGQGTKVEIKW | 7.80
DOM7h-11-79 (other, Vk dAb) VL: DIQMTQSPSSLSASVGDRVTITCRASRPIGTMLSWYQQKPGKAPKLLILAFSRLQSGVPSRFSGSGSGTDFTLTISSLQPEDFATYYCAQTGTHPTTFGQGTKVEIKW | 7.93

Now look at this one.
IN: Consider the binder shown here: DOM7h-11-67 (other, Vk dAb) VL: DIQMTQSPSSLSASVGDRVTITCRASRPIGTMLSWYQQKPGKAPKLLILAFSRLQSGVPSRFSGSGSGTDFTLTISSLQPEDFATYYCAQAGTHHTTFGQGTKVENKW What is its recorded pKd?
OUT: 8.57
